Overview of recorded IC50 for various compounds
- System: Endogenous Huntingtin Protein
- method: Endogenous Huntingtin Protein Assay (ELISA-based MSD electrochemiluminescence)
- Format: cell-based
- runParameters: Table 1
observationType: IC50

compoundstructure=Cc1cn2nc(-c3cc4sc(N(C)C5CC(C)(C)NC(C)(C)C5)nc4cn3)cc(C)c2n1 testresult="100 to 500 nM"
compoundstructure=CN(C)[C@H]1CC[C@H](N(C)c2nc3nnc(-c4ccc(-c5cn[nH]c5)cc4O)cc3s2)CC1 testresult="1000 to 3000 nM"
compoundstructure=Cc1cn2nc(-c3cc(F)c4nc(N(C)C5CCNCC5)sc4c3)cc(C#N)c2n1 testresult="≤ 100 nM"
